// provenance: patent US12161649B2

Target: recombinant EGFR 790M/L858R kinase (Homo sapiens, UniProt P00533, L858R/T790M)
Construct: Constructs spanning residues 696-1022 of the human EGFR; GST (cleaved yes)
Sequence (P00533 696-1022 T790M/L858R): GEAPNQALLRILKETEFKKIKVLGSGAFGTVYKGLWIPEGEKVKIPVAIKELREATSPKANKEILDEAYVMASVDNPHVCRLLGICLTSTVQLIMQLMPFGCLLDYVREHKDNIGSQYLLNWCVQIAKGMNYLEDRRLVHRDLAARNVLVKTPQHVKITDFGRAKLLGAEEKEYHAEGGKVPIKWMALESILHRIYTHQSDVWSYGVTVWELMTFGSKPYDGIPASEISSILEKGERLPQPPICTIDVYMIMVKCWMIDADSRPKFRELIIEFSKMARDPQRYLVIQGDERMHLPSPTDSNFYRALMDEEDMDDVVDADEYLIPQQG
Assay: HTRF-based EGFR biochemical assay
Experimental: EGFR biochemical assays are carried out using a homogeneous time-resolved fluorescence (HTRF) assay. The reaction mixtures contain biotin-Lck-peptide substrate, wild type, or mutant EGFR enzyme in reaction buffer. […] Compounds of the present application are diluted into the assay mixture and IC50 values are determined using 12-point inhibition curves. […] EGFR biochemical assays were carried out using a homogeneous time-resolved fluorescence (HTRF) assay as described previously. […]
Task for the reader: assign each of the following compounds its reported IC50.

Lab note: each compound below needs its IC50 filled in.
1. O=C(Cc1ccc(N2CCOCC2)cc1)N[C@H]1CNc2ccc(F)cc2N(Cc2ccccc2)C1=O
2. O=C(N[C@H]1CNc2ccc(F)cc2N(Cc2ccccc2)C1=O)c1ccc(N2CCOCC2)cn1
3. CN1CCN(c2ccc(-c3ccc4c(c3)C(=O)N([C@H]3CNc5ccc(F)cc5N(Cc5ccccc5)C3=O)C4)cc2)CC1
4. O=C(Cc1ccc(-n2cnnn2)cc1)N[C@H]1CNc2ccc(F)cc2N(Cc2ccccc2)C1=O
5. CN1CCN(c2ccc(C(=O)N[C@H]3CNc4ccc(F)cc4N(Cc4ccccc4)C3=O)cc2)CC1

RESULT:
1: > 750 nM; 2: > 750 nM; 3: < 250 nM; 4: > 750 nM; 5: > 750 nM

QUERY: Need IC50, item CN1CCN(c2ccc3c(c2)C(=O)N([C@H]2CNc4ccc(F)cc4N(Cc4ccccc4)C2=O)C3)CC1
RESULT: > 750 nM

---

Molecular target: T790M/L858R Ba/F3 cells (Homo sapiens, UniProt P00533, T790M/L858R, cells depend on it)
Construct: The constructs were shuttled into the retroviral vector JP1540 using the BD Creator® System (BD Biosciences)
Sequence (P00533 whole entry T790M/L858R): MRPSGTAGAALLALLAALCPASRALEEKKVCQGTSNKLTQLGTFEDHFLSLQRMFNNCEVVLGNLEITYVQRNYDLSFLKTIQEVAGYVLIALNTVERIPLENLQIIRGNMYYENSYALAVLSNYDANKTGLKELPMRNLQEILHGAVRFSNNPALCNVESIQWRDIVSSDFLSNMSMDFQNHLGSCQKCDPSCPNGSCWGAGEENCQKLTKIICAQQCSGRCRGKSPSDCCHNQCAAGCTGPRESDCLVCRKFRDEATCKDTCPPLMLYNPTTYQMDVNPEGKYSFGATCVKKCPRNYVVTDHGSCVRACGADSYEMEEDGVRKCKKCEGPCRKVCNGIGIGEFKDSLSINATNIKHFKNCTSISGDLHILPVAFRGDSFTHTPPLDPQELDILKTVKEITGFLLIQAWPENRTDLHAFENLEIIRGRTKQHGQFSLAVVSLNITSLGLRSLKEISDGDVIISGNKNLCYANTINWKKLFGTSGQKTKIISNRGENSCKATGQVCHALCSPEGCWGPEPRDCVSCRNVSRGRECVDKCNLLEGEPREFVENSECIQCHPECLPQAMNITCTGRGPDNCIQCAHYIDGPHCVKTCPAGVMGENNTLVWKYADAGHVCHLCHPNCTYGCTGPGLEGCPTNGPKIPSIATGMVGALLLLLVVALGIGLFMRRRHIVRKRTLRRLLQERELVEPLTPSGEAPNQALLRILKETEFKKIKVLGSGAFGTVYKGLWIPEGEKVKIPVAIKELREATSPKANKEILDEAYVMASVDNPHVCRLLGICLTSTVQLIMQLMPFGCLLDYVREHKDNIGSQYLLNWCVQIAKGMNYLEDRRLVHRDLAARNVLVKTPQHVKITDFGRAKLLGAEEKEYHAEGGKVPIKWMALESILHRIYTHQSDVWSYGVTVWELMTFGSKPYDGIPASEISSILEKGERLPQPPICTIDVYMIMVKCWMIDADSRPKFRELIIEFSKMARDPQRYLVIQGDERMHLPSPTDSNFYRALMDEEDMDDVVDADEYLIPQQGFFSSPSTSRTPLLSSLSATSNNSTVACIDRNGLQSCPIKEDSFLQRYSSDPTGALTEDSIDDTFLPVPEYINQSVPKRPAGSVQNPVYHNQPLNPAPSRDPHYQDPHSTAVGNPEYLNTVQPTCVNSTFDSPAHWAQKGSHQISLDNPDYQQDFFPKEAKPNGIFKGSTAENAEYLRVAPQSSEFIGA
Test: Ba/F3 cell proliferation (MTS assay)
Format: cell-based, murine
Conditions: read-out: Ba/F3 cellular activity (EC50) T790M/L858R + Cetuximab; antiproliferative activity, presence of 1 μg/mL cetuximab
pEC50: −log10 of the molar value.
measured_quantity: pEC50

Below, each entry is followed by its recorded pEC50 result.
> print(dat)
                            compound.smiles  measured.result
1  COc1cc(N2CCOCC2)ccc1C(=O)N[C@H]1CNc2ccc(F)cc2N(Cc2ccccc2)C1=O           < 6.12
2  O=C1[C@@H](N2Cc3ccc(F)cc3C2=O)CNc2ccc(F)cc2N1Cc1ccccc1           > 6.60
3  CN1CCN(c2cccc(C(=O)N[C@H]3CNc4ccc(F)cc4N(Cc4ccccc4)C3=O)c2)CC1           < 6.12
4  COc1ccc(C2=CCNCC2)cc1C(=O)N[C@H]1CNc2ccc(F)cc2N(Cc2ccccc2)C1=O           < 6.12

Record pEC50 for all entries; do not skip any.
1. CN1CCN(c2ccc(-c3ccc4c(c3)CN([C@H]3CNc5ccc(F)cc5N(Cc5ccccc5)C3=O)C4=O)cc2)CC1
2. CN1CCN(c2ccnc(C(=O)N[C@H]3CNc4ccc(F)cc4N(Cc4ccccc4)C3=O)c2)CC1
3. O=C(Cc1ccc(N2CCOCC2)cc1)N[C@H]1CNc2ccc(F)cc2N(Cc2ccccc2)C1=O
4. CN1CCN(c2ccc(-c3ccc4c(c3)C(=O)N([C@H]3CNc5ccc(F)cc5N(Cc5ccccc5)C3=O)C4)cc2)CC1
5. O=C(N[C@H]1CNc2ccc(F)cc2N(Cc2ccccc2)C1=O)c1ccc(N2CCOCC2)cn1
6. CN1CCN(c2ccc3c(c2)C(=O)N([C@H]2CNc4ccc(F)cc4N(Cc4ccccc4)C2=O)C3)CC1
7. O=C(Cc1ccc(-n2cnnn2)cc1)N[C@H]1CNc2ccc(F)cc2N(Cc2ccccc2)C1=O
8. CN1CCN(c2ccc(C(=O)N[C@H]3CNc4ccc(F)cc4N(Cc4ccccc4)C3=O)cc2)CC1

RESULT:
1: > 6.60; 2: < 6.12; 3: < 6.12; 4: > 6.60; 5: < 6.12; 6: < 6.12; 7: < 6.12; 8: < 6.12

QUERY: // pEC50 lookup, key: CN1CCN(c2ccc(NC(=O)N[C@H]3CNc4ccc(F)cc4N(Cc4ccccc4)C3=O)cc2)CC1
RESULT: < 6.12
